Numbers sourced from patent US10336739B2.

Record form. Attribute: EC50. Fill in for each entry.
# tested-system: human APJ receptor (Homo sapiens (Human))
# Sequence (P35414 whole entry): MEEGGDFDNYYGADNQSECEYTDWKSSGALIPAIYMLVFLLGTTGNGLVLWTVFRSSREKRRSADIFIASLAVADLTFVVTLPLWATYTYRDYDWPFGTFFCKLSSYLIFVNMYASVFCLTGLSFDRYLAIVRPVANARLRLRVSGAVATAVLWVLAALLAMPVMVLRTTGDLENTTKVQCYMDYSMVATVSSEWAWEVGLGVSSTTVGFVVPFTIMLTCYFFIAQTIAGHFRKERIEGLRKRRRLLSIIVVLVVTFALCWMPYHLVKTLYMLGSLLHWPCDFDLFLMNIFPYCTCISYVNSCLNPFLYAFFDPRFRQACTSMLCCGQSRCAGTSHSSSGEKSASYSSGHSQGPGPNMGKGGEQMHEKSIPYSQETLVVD
# assay-protocol: Intracellular cAMP accumulation assay (APJ hcAMP, HTRF)
# Type: cell-based
# experimental-conditions: HEK293 cells stably expressing human APJ receptor; inhibition of forskolin-mediated cAMP production; read-out: Human APJ cAMP EC50 Potency range

Some molecules with known EC50 results, for comparison:
[in] Find the recorded EC50 belonging to CCCCc1nc(O)c(-c2nnc(Cc3noc4ccccc34)o2)c(O)c1-c1c(C)cccc1C and report it.
[out] 0.01 to 10 nM

[in] And what about the molecule CCCCc1nc(O)c(-c2nnc(Cc3ccc(Cl)cc3)o2)c(O)c1-c1c(OC)ccc(F)c1OC (single isomer, unassigned) [Example 218] ?
[out] 10 to 100 nM

[in] Same question, CCNCc1[nH]c(=O)c(-c2nnc(Cc3ccc(Cl)cn3)o2)c(O)c1-c1c(OC)cccc1OC this time
[out] 0.01 to 10 nM

[in] Again, but for CCCCc1nc(O)c(-c2nnc(Cc3nnc(-c4ccc(Cl)cc4)o3)o2)c(O)c1-c1c(OC)cccc1OC
[out] 10 to 100 nM

[in] How about CCOCc1nc(O)c(-c2nnc(Cc3ccc(Cl)cc3)o2)c(O)c1-c1c(O)cccc1OC (single isomer, unassigned) [Example 222] ?
[out] 0.01 to 10 nM

Quick request: EC50 for each listed item, please.
1. CCOCc1nc(O)c(-c2nnc(Cc3ccc(Cl)cc3)o2)c(O)c1-c1c(OC)cncc1OC
2. CCCCc1nc(O)c(-c2nnc(CNC)o2)c(O)c1-c1c(OC)cccc1OC
3. CCOCc1nc(O)c(-c2nnc(Cc3noc4ccccc34)s2)c(O)c1-c1c(OC)cccc1OC
4. CCCCc1[nH]c(=O)c(-c2nnc(Cc3csc(C)n3)o2)c(O)c1-c1cccc(CC)c1

[out]
["10 to 100 nM", "10 to 100 nM", "10 to 100 nM", "10 to 100 nM"]

Would you mind listing EC50 for each of the following molecules?
1. CCOCc1nc(O)c(-c2nnc(Cn3ccccc3=O)o2)c(O)c1-c1c(OC)cc(F)cc1OC
2. CCOCc1nc(O)c(-c2nnc(Cc3ccc(Cl)cc3)o2)c(O)c1-c1c(O)cccc1O

[out]
["10 to 100 nM", "10 to 100 nM"]
